The measured values listed here are drawn from ChEMBL document CHEMBL3885861.

# Species: Rattus norvegicus
# run-description: Open TG-GATES - Regimen: Daily Repeat
# Type: toxicity, organism-based, Sprague-Dawley
# Design: regimen Daily Repeat, gender Male, age 6 weeks
# settings: in vivo, po, 0 mg/kg, […], tissue Plasma, route gavage, dose level Control, time 14 day
gamma-GTP values by entry
Report the value in IU/L with no unit label.

compound	units	gamma-GTP
CCOC(=O)CCC(=O)O[C@H]1[C@H](O[C@@H]2[C@@H](C)[C@H](O[C@H]3C[C@@](C)(OC)[C@@H](O)[C@H](C)O3)[C@@H](C)C(=O)O[C@H](CC)[C@@](C)(O)[C@H](O)[C@@H](C)C(=O)[C@H](C)C[C@@]2(C)O)O[C@H](C)C[C@@H]1N(C)C [ERYTHROMYCIN ETHYLSUCCINATE]	IU/L	2.2
CN(C)CCN(Cc1cccs1)c1ccccn1	IU/L	1.2

Now, please, on to the next compound.
Problem: Item CC1=C(/C=C/C(C)=C/C=C/C(C)=C/CO)C(C)(C)CCC1 has what recorded gamma-GTP?
Solution: 1.2
